// data source = patent US20180057581A1

Molecular target: T1, Recombinant cynomolgus monkey sgM-CSF (cynomolgus (Macaca fascicularis), UniProt P09603 33-255 (human entry), limits assumed)
T1 construct: used also where only 'cynomolgus M-CSF' is printed (ELISA result, SET); also called cynomolgus sgM-CSF; cyno sgM-CSF
T1 chain: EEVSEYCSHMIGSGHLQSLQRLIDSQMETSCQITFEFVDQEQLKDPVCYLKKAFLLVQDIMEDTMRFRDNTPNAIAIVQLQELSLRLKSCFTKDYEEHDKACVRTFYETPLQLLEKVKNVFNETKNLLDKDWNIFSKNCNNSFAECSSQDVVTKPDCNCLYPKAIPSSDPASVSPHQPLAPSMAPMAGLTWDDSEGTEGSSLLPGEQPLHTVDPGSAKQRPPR
Experiment: soluble equilibrium titration (SET), Fab, monovalent
Reported metric: Kd

Consider the worked cases shown below.
Entry Maelle, Fab (Fab, V domains shown) VH: QVQLQQSGPGLVKPSQTLSLTCAISGESVSTSSAAWNWIRQSPSRGLEWLGRTYYRSKWKKEYAQSVKSRITINPDTSKNQFSLQLNSVTPEDTAVYYCARDRYYYSAFDYWGQGTLVTVSS VL: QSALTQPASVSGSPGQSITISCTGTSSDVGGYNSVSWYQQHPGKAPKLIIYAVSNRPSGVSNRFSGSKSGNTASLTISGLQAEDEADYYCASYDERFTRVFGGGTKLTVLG , Kd reported as 0.027 nM

Entry Romaine, Fab (Fab, V domains shown) VH: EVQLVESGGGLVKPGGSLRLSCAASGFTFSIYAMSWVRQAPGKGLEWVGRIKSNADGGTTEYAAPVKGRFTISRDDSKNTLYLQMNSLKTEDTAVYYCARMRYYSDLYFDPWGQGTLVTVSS VL: DIELTQPPSVSVSPGQTASITCSGDAIGSKYVHWYQQKPGQAPVLVISKDNKRPSGIPERFSGSNSGNTATLTISGTQAEDEADYYCQTATVSSYWWVFGGGTKLTVLG , Kd reported as 0.007 nM

Proceeding to the next binder to report its Kd.
Entry Blanche, Fab (Fab, V domains shown) VH: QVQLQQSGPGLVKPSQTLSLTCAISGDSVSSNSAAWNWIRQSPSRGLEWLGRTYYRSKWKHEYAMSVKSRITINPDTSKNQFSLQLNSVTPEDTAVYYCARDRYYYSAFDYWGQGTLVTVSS VL: DIALTQPASVSGSPGQSITISCTGTSSDVGGYNSVSWYQQHPGKAPKLMIYAVSNRPSGVSNRFSGSKSGNTASLTISGLQAEDEADYYCASYDERFTRVFGGGTKLTVLG , Kd reported as 0.13 nM
